pIC50: −log10 of the molar value.
A set of compounds tested on human JAK1 (a.a. 837-1142) (Homo sapiens, UniProt P23458), with measured pIC50:

[Q] Fill blank: measured pIC50 of the compound COCCN(C)Cc1cc(C(=O)N2CCC(N3CC(CC#N)(n4cc(-c5ncnc6[nH]ccc56)cn4)C3)CC2)nc(C(F)(F)F)n1 [Example 384] is ____.
[A] ≥ 8.30

[Q] Could you share which pIC50 value was measured for N#CCC1(n2cc(-c3c(F)cnc4[nH]ccc34)cn2)CN(C2CCN(C(=O)c3cc(C(F)(F)F)ncc3Cl)CC2)C1 [Example 326] ?
[A] 7.70 to 8.30

[Q] Look up pIC50: Cc1csc(C(=O)N2CCC(N3CC(CC#N)(n4cc(-c5ncnc6[nH]ccc56)cn4)C3)CC2)c1 [Example 79]
[A] ≥ 8.30

***
[Q] Value lookup for pIC50; key = N#CCC1(n2ccc(-c3ncnc4[nH]ccc34)c2)CN(C2CCN(C(=O)Nc3ccc(F)cc3C(F)(F)F)CC2)C1 [Example 283]
[A] ≥ 8.30

[Q] I have this compound here, Cc1ccc(C(=O)N2CCC(N3CC(CC#N)(n4cc(-c5ncnc6[nH]ccc56)cn4)C3)CC2)s1 [Example 80] , and I need its recorded pIC50.
[A] ≥ 8.30

[Q] Fill blank: measured pIC50 of the compound COc1ccc(F)cc1C(=O)N1CCC(N2CC(CC#N)(n3cc(-c4ncnc5[nH]ccc45)cn3)C2)CC1 [Example 38] is ____.
[A] ≥ 8.30

[Q] Consider the compound N#CCC1(n2cc(-c3c(F)cnc4[nH]ccc34)cn2)CN(C2CCN(C(=O)c3ccnc(C(F)(F)F)n3)CC2)C1 [Example 353] and give its measured pIC50.
[A] 7.70 to 8.30

Ref: patent US9999619B2
